Every entry's value here was drawn from paper PMC9482650.

STUDY_TARGET: T1, SYNJ2BP, P57105
T1 sequence (P57105 8-110, limits assumed, looked up): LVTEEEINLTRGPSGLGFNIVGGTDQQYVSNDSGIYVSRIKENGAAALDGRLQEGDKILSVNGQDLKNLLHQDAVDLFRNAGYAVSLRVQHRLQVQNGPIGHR
EXPERIMENT_DESCRIPTION: holdup assay
Parameters: key: below the threshold = too weak to quantify, mostly under pKd 3.1 to 4
CONDITION_SUMMARY: plain residues with an end cap or a label only (N-terminal biotin on a linker: ado-ado)
OBSERVED_PROPERTY: pKd
Reply with the value as a number alone.

SPDRDRESIV [SCN5A, Q14524]    4.47
MQHQRTHTRV [ZSCAN30, Q86W11]    4.28
DDASLPVSDV [PLEKHA1, Q9HB21]    3.59
NTLNRKTTPV [CACNG8, Q8WXS5]    4.85
APIAGFSSFV [SDK2, Q58EX2]    4.72

Now consider a different binder.
// query Which pKd is reported for this binder? EIPAQSPTCV [FZD10, Q9ULW2]
// result 4.36
